target: DYRK1A (Homo sapiens); assay: DYRK1A binding assay (DiscoverX KINOMEscan); details: eleven serial three fold dilutions, highest concentration 60 μM
QUANTITY: Kd (nM)
One number for each entry, in nM.

The cases that follow already have their Kd on record.
{"columns": ["MOLECULE", "SYSTEM TESTED", "QUANTITY", "MEASURED"],
 "data": [
  ["CC(Nc1ncc(-c2ccc3[nH]c(=O)[nH]c3c2)cn1)c1ccccc1 (centres unmarked) [Compound 29j]", "DYRK1A (Homo sapiens)", "Kd", 360],
  ["O=c1[nH]c2ccc(-c3cnc(NCc4cccc(F)c4)nc3)cc2[nH]1 [Compound 29b]", "DYRK1A (Homo sapiens)", "Kd", 91],
  ["N#Cc1ccc(CNc2ncc(-c3ccc4[nH]c(=O)[nH]c4c3)cn2)cc1 [Compound 29g]", "DYRK1A (Homo sapiens)", "Kd", 120],
  ["Cn1c(=O)[nH]c2ccc(-c3cnc(NCc4ccccc4)nc3)cc21 [Compound 17c]", "DYRK1A (Homo sapiens)", "Kd", 59]
]}

# return recorded Kd for input c1ccc(CNc2ncc(-c3ccc4[nH]cnc4c3)cn2)cc1 [Compound 17i] 2000
